Source listed as PubChem BioAssay AID1963856.

Tested on: LG0567-F671-PDC KRAS tumor spheroid viability
assay.summary: Anticancer human tumor LG0567-F671-PDC patient-derived lung adenocarcinoma cell line growth inhibition [KRAS2]
condition: second compound 0.316 µM; first compound 0.01 µM; stronger effect = lower value; spheroids with HUVEC and MSC
# viability, T/C listing for each entry below
test.readout: viability, T/C (%)

- molecule: "CN(C)C/C=C/C(=O)Nc1cc2c(Nc3ccc(F)c(Cl)c3)ncnc2cc1O[C@H]1CCOC1 + CC1OCC2(CCN(c3cnc(Sc4ccnc(N)c4Cl)c(N)n3)CC2)C1N"
  test.readout: "viability, T/C"
  measurement.units: "%"
  reported.measurement: 30.6
- molecule: "Cn1ncnc1[C@H]1c2n[nH]c(=O)c3cc(F)cc(c23)N[C@@H]1c1ccc(F)cc1 + CC1OCC2(CCN(c3cnc(Sc4ccnc(N)c4Cl)c(N)n3)CC2)C1N"
  test.readout: "viability, T/C"
  measurement.units: "%"
  reported.measurement: 36.4
- molecule: "Cn1ncnc1[C@H]1c2n[nH]c(=O)c3cc(F)cc(c23)N[C@@H]1c1ccc(F)cc1 + C=CC(=O)N1CCN(c2nc(=O)n(-c3c(C)ccnc3C(C)C)c3nc(-c4c(O)cccc4F)c(F)cc23)C(C)C1"
  test.readout: "viability, T/C"
  measurement.units: "%"
  reported.measurement: 20.8
- molecule: "CC1COCCN1c1cc(-c2ccnn2C)c2ccnc(-c3ccn[nH]3)c2n1 (stereo unspecified) + C=CC(=O)N1CCN(c2nc(=O)n(-c3c(C)ccnc3C(C)C)c3nc(-c4c(O)cccc4F)c(F)cc23)C(C)C1"
  test.readout: "viability, T/C"
  measurement.units: "%"
  reported.measurement: 21.8
- molecule: "CC(C)n1nc(-c2ccc3oc(N)nc3c2)c2c(N)ncnc21 + COc1cc2nc(C)nc(NC(C)c3cc(N)cc(C(F)(F)F)c3)c2cc1OC1CCOC1"
  test.readout: "viability, T/C"
  measurement.units: "%"
  reported.measurement: 47.5
- molecule: "CC1COCCN1c1cc(-c2ccnn2C)c2ccnc(-c3ccn[nH]3)c2n1 (stereo unspecified) + CNCc1ccccc1-c1csc(C(C)Nc2nc(C)nc3cc(OC)c(OC)cc23)c1"
  test.readout: "viability, T/C"
  measurement.units: "%"
  reported.measurement: 85.9

---

System: LG0567-F671-PDC KRAS tumor spheroid viability
assay.summary: Anticancer human tumor LG0567-F671-PDC cell line growth inhibition [KRAS2];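 also: drug exposure lasted seven days after spheroids formed for three days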;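 as to viability, T/C: 100% = DMSO vehicle control viability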
condition: second compound 3.16 µM; first compound 0.0316 µM; stronger effect = lower value; spheroids with HUVEC and MSC
Please note: viability, T/C exactly at 20% is No. Only values below 20% get Yes.

- molecule: "CC1(C)CCC(CN2CCN(c3ccc(C(=O)NS(=O)(=O)c4ccc(NCC5CCOCC5)c([N+](=O)[O-])c4)c(Oc4cnc5[nH]ccc5c4)c3)CC2)=C(c2ccc(Cl)cc2)C1 + CNCc1ccccc1-c1csc(C(C)Nc2nc(C)nc3cc(OC)c(OC)cc23)c1"
  target.desc: "LG0567-F671-PDC KRAS tumor spheroid viability"
  category: "Yes"
- molecule: "Cn1ncnc1[C@H]1c2n[nH]c(=O)c3cc(F)cc(c23)N[C@@H]1c1ccc(F)cc1 + COc1cc2nc(C)nc(NC(C)c3cc(N)cc(C(F)(F)F)c3)c2cc1OC1CCOC1"
  target.desc: "LG0567-F671-PDC KRAS tumor spheroid viability"
  category: "No"
- molecule: "CC1COCCN1c1cc(-c2ccnn2C)c2ccnc(-c3ccn[nH]3)c2n1 (stereo not given) + COc1cc2nc(C)nc(NC(C)c3cc(N)cc(C(F)(F)F)c3)c2cc1OC1CCOC1"
  target.desc: "LG0567-F671-PDC KRAS tumor spheroid viability"
  category: "No"
- molecule: "CC1(C)CCC(CN2CCN(c3ccc(C(=O)NS(=O)(=O)c4ccc(NCC5CCOCC5)c([N+](=O)[O-])c4)c(Oc4cnc5[nH]ccc5c4)c3)CC2)=C(c2ccc(Cl)cc2)C1 + COc1cc2nc(C)nc(NC(C)c3cc(N)cc(C(F)(F)F)c3)c2cc1OC1CCOC1"
  target.desc: "LG0567-F671-PDC KRAS tumor spheroid viability"
  category: "No"
- molecule: "CCN1CCN(Cc2ccc(Nc3ncc(F)c(-c4cc(F)c5nc(C)n(C(C)C)c5c4)n3)nc2)CC1 + CC1OCC2(CCN(c3cnc(Sc4ccnc(N)c4Cl)c(N)n3)CC2)C1N"
  target.desc: "LG0567-F671-PDC KRAS tumor spheroid viability"
  category: "Yes"
- molecule: "CC(=O)OC12COC1CC(O)C1(C)C(=O)C(O)C3=C(C)C(OC(=O)C(O)C(NC(=O)OC(C)(C)C)c4ccccc4)CC(O)(C(OC(=O)c4ccccc4)C21)C3(C)C (stereo not given) + C=CC(=O)N1CCN(c2nc(OCC3CCCN3C)nc3c2CCN(c2cccc4cccc(C)c24)C3)CC1CC#N"
  target.desc: "LG0567-F671-PDC KRAS tumor spheroid viability"
  category: "No"
- molecule: "CC(=O)Nc1cccc(-n2c(=O)n(C3CC3)c(=O)c3c(Nc4ccc(I)cc4F)n(C)c(=O)c(C)c32)c1 + C=CC(=O)N1CCN(c2nc(=O)n(-c3c(C)ccnc3C(C)C)c3nc(-c4c(O)cccc4F)c(F)cc23)C(C)C1"
  target.desc: "LG0567-F671-PDC KRAS tumor spheroid viability"
  category: "Yes"
- molecule: "CC(C)NCC(C(=O)N1CCN(c2ncnc3c2C(C)CC3O)CC1)c1ccc(Cl)cc1 (stereo not given) + COc1cc2nc(C)nc(NC(C)c3cc(N)cc(C(F)(F)F)c3)c2cc1OC1CCOC1"
  target.desc: "LG0567-F671-PDC KRAS tumor spheroid viability"
  category: "No"
- molecule: "CN(C)C/C=C/C(=O)Nc1cc2c(Nc3ccc(F)c(Cl)c3)ncnc2cc1O[C@H]1CCOC1 + CC1OCC2(CCN(c3cnc(Sc4ccnc(N)c4Cl)c(N)n3)CC2)C1N"
  target.desc: "LG0567-F671-PDC KRAS tumor spheroid viability"
  category: "Yes"
- molecule: "CC(C)n1nc(-c2ccc3oc(N)nc3c2)c2c(N)ncnc21 + CNCc1ccccc1-c1csc(C(C)Nc2nc(C)nc3cc(OC)c(OC)cc23)c1"
  target.desc: "LG0567-F671-PDC KRAS tumor spheroid viability"
  category: "Yes"

---

Test system: LG0567-F671-PDC KRAS tumor spheroid viability
assay.summary: Anticancer human tumor LG0567-F671-PDC cell line growth inhibition [KRAS2]; active = viability on the fitted dose curve at most 10% of control; inactive = the rest;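 also: drug exposure lasted seven days after spheroids formed for three days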
condition: compound 10 µM; spheroids with HUVEC and MSC
Outcomes: yes for active, no for inactive

- compound: "CNCc1ccccc1-c1csc(C(C)Nc2nc(C)nc3cc(OC)c(OC)cc23)c1 (stereo not given)"
  category: "yes"
- compound: "Cn1nccc1Nc1nccc(-c2cc3c(s2)C(C)(C)N(CCN2CCOCC2)C3=O)n1"
  category: "no"
- compound: "CC(C)NCC(C(=O)N1CCN(c2ncnc3c2C(C)CC3O)CC1)c1ccc(Cl)cc1 (stereo not given)"
  category: "no"
- compound: "COc1cc(Nc2ncc3c(n2)-c2ccc(Cl)cc2C(c2c(F)cccc2OC)=NC3)ccc1C(=O)O"
  category: "no"

---

Tested on: LG0567-F671-PDC KRAS tumor spheroid viability
assay.summary: Anticancer human tumor LG0567-F671-PDC cell line growth inhibition [KRAS2];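 also: drug exposure lasted seven days after spheroids formed for three days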;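 as to viability, T/C: 100% = DMSO vehicle control viability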
condition: second compound 3.16 µM; first compound 1 µM; stronger effect = lower value; spheroids with HUVEC and MSC
# viability, T/C listing for each entry below

- compound: "Cn1nccc1Nc1nccc(-c2cc3c(s2)C(C)(C)N(CCN2CCOCC2)C3=O)n1 + CC1OCC2(CCN(c3cnc(Sc4ccnc(N)c4Cl)c(N)n3)CC2)C1N"
  measurement.units: "%"
  viability, T/C: 9.57
- compound: "COC(=O)c1ccc2c(C(=Nc3ccc(N(C)C(=O)CN4CCN(C)CC4)cc3)c3ccccc3)c(O)[nH]c2c1 + C=CC(=O)N1CCN(c2nc(=O)n(-c3c(C)ccnc3C(C)C)c3nc(-c4c(O)cccc4F)c(F)cc23)C(C)C1"
  measurement.units: "%"
  viability, T/C: 22.6
- compound: "CCN1CCN(Cc2ccc(Nc3ncc(F)c(-c4cc(F)c5nc(C)n(C(C)C)c5c4)n3)nc2)CC1 + C=CC(=O)N1CCN(c2nc(=O)n(-c3c(C)ccnc3C(C)C)c3nc(-c4c(O)cccc4F)c(F)cc23)C(C)C1"
  measurement.units: "%"
  viability, T/C: 33.8

---

System: LG0567-F671-PDC KRAS tumor spheroid viability
assay.summary: Anticancer human tumor LG0567-F671-PDC cell line growth inhibition [KRAS2];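 also: drug exposure lasted seven days after spheroids formed for three days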
condition: compound alone; run of 07/26/2021; spheroids with HUVEC and MSC
# IC50 listing for each entry below
test.readout: IC50

- compound: "CC1OCC2(CCN(c3cnc(Sc4ccnc(N)c4Cl)c(N)n3)CC2)C1N (stereo not given)"
  test.readout: "IC50"
  reported.measurement: "134 nM [middle of 6 runs]"
- compound: "C=CC(=O)N1CCN(c2nc(OCC3CCCN3C)nc3c2CCN(c2cccc4cccc(C)c24)C3)CC1CC#N (stereo not given)"
  test.readout: "IC50"
  reported.measurement: "< 31.6 nM"
- compound: "C=CC(=O)N1CCN(c2nc(=O)n(-c3c(C)ccnc3C(C)C)c3nc(-c4c(O)cccc4F)c(F)cc23)C(C)C1 (stereo not given)"
  test.readout: "IC50"
  reported.measurement: "< 100 nM"
- compound: "CNCc1ccccc1-c1csc(C(C)Nc2nc(C)nc3cc(OC)c(OC)cc23)c1 (stereo not given)"
  test.readout: "IC50"
  reported.measurement: "4.92 µM [middle of 6 runs]"
- compound: "COc1cc2nc(C)nc(NC(C)c3cc(N)cc(C(F)(F)F)c3)c2cc1OC1CCOC1 (stereo not given)"
  test.readout: "IC50"
  reported.measurement: "> 10000 nM"
